# assay_name: Cytotoxicity, live cells by flow cytometry, U937 cells (PMA−/PMA+)
# Format: cell-based
# applied_conditions: human
Each item that follows carries a reported CC50 at 48 h.

[
  {
    "compound": "Nc1nc2c(ncn2COCCO)c(=O)[nH]1",
    "CC50 at 48 h": "> 200 µM"
  },
  {
    "compound": "Cc1cn([C@H]2C=C[C@@H](CO)O2)c(=O)[nH]c1=O [d4T, 2′,3′-didehydro-2′,3′-dideoxythymidine]",
    "CC50 at 48 h": "> 200 µM"
  },
  {
    "compound": "Nc1nc(NC2CC2)c2ncn([C@H]3C=C[C@@H](CO)C3)c2n1",
    "CC50 at 48 h": "> 200 µM"
  },
  {
    "compound": "Nc1nc(O)c2ncn(COC(CO)CO)c2n1",
    "CC50 at 48 h": "> 200 µM"
  }
]

====

# assayed_system: SAMHD1 (Homo sapiens)
# Construct: The final concentrations were 100 nM SAMHD1(115–626), 10 nM Ppx1; strep-tag; made in house
# Sequence (Q9Y3Z3 115-626): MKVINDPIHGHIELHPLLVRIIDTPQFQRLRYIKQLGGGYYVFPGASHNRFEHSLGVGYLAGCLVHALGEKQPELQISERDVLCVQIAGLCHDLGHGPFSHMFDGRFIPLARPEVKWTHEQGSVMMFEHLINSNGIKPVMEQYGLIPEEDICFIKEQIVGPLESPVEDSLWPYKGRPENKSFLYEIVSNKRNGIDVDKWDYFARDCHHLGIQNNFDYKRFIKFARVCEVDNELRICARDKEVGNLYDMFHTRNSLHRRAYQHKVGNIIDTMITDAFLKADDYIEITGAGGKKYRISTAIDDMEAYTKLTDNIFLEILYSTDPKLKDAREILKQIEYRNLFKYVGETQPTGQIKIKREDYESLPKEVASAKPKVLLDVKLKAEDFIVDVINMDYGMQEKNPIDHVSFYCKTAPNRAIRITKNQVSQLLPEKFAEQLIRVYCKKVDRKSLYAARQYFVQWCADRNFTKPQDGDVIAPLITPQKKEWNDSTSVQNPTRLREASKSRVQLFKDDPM
# assay_name: SAMHD1 triphosphohydrolase continuous coupled-enzyme assay (MDCC-PBP phosphate biosensor, Ppx1)
# Format: biochemical
# applied_conditions: 0.3 mM analogue triphosphate, without and with 0.1 mM GTP
# Text: SAMHD1 hydrolysis, activation and inhibition by nucleotide analogues was quantified using a continuous coupled assay employing the fluorescent phosphate biosensor MDCC-PBP to measure phosphate release from combined SAMHD1 triphosphohydrolase and S. cerevisiae Ppx1 exopolyphosphatase activity, described previously. SAMHD1 and Ppx1 were expressed as strep-tagged fusion proteins and purified as described previously. […]
endpoint_name: hydrolysis by SAMHD1 (substrate)

[
  {
    "compound": "Nc1nc(NC2CC2)c2ncn([C@H]3C=C[C@@H](COP(=O)(O)OP(=O)(O)OP(=O)(O)O)C3)c2n1 [ABC-TP, abacavir-5′-triphosphate]",
    "result": "not hydrolysed by SAMHD1"
  },
  {
    "compound": "Nc1nc(=O)c2ncn([C@H]3C=C[C@@H](COP(=O)(O)OP(=O)(O)OP(=O)(O)O)C3)c2[nH]1 [CBV-TP, Carbovir 5′-triphosphate]",
    "result": "not hydrolysed by SAMHD1"
  }
]

====

# Test system: HIV-1-GFP
# assay_name: Anti-HIV-1 activity in U937 cells transduced with wt SAMHD1 or HD206-7AA mutant
# Type: cell-based
# applied_conditions: Human immunodeficiency virus 1, U-937, read-out: EC50 [95% CI], U937 PMA−, SAMHD1+ population
pEC50: −log10 of the molar value.

[
  {
    "molecule": "Nc1nc2c(ncn2COCCO)c(=O)[nH]1",
    "qualifier": "<",
    "pEC50": 3.70
  },
  {
    "molecule": "Nc1nc(O)c2ncn(COC(CO)CO)c2n1",
    "qualifier": "<",
    "pEC50": 3.70
  },
  {
    "molecule": "Cc1ccnc2c1NC(=O)c1cccnc1N2C1CC1",
    "qualifier": "=",
    "pEC50": 6.95
  },
  {
    "molecule": "O=c1[nH]cnc2c1ncn2[C@H]1CC[C@@H](CO)O1",
    "qualifier": "=",
    "pEC50": 4.63
  },
  {
    "molecule": "Nc1nc(NC2CC2)c2ncn([C@H]3C=C[C@@H](CO)C3)c2n1",
    "qualifier": "=",
    "pEC50": 4.76
  },
  {
    "molecule": "Cc1cn([C@H]2C=C[C@@H](CO)O2)c(=O)[nH]c1=O [d4T, 2′,3′-didehydro-2′,3′-dideoxythymidine]",
    "qualifier": "=",
    "pEC50": 6.10
  },
  {
    "molecule": "Cc1nnc(C(=O)NC(C)(C)c2nc(C(=O)NCc3ccc(F)cc3)c(O)c(=O)n2C)o1",
    "qualifier": "=",
    "pEC50": 7.96
  },
  {
    "molecule": "Nc1nc(Cl)nc2c1ncn2[C@@H]1O[C@H](CO)[C@@H](O)[C@@H]1F",
    "qualifier": "=",
    "pEC50": 6.86
  }
]
